EXPERIMENTAL SYSTEM: Pyruvate kinase PKM (Homo sapiens)
Sequence (P14618 2-531 limits assumed): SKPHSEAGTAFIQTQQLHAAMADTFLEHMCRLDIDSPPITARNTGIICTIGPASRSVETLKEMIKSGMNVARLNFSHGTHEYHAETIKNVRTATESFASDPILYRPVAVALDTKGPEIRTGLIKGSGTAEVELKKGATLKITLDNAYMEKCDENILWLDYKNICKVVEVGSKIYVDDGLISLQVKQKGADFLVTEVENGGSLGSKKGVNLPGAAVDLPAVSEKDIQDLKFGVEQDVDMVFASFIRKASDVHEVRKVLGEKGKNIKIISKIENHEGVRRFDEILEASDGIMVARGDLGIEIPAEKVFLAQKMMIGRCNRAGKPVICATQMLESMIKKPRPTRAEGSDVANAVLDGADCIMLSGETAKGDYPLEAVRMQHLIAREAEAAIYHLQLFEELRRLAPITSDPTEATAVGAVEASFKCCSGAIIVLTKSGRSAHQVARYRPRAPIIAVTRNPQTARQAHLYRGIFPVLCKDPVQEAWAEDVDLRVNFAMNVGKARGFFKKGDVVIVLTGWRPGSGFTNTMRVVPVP
ASSAY PROTOCOL: Activation of human recombinant His-tagged PKM2 expressed in Escherichia coli assessed as maximal activity using PEP as substrate measured at 30 sec between 3 and 6 mins in presence of […] by fluorescent pyruvate kinase-lactate dehydrogenase coupled assay relative to control
Calls of active or inactive are those of the source. No cut-off for these calls is given here.
QUANTITY KIND: %max

[[record]]
smiles_data = "O=C(CCSC(=S)NCc1cccnc1)c1c(-c2ccccc2)nn2ncccc12"
experimental_system = "Pyruvate kinase PKM (Homo sapiens)"
result = "148%"

[[record]]
smiles_data = "O=C(CCSC(=S)NCc1cccnc1)c1c[nH]c2ncccc12"
experimental_system = "Pyruvate kinase PKM (Homo sapiens)"
result = "113%"

[[record]]
smiles_data = "O=C(CCSC(=S)NCc1cccnc1)c1c[nH]c2ncc(-c3ccc(Cl)cc3)cc12"
experimental_system = "Pyruvate kinase PKM (Homo sapiens)"
result = "inactive"

[[record]]
smiles_data = "O=C(CCSC(=S)NCc1cccnc1)c1cn(-c2cccs2)c2ncccc12"
experimental_system = "Pyruvate kinase PKM (Homo sapiens)"
result = "inactive"

[[record]]
smiles_data = "O=C(CCSC(=S)NCc1cccnc1)c1cn(C2CC2)c2ncccc12"
experimental_system = "Pyruvate kinase PKM (Homo sapiens)"
result = "42%"

[[record]]
smiles_data = "O=C(CCSC(=S)NCc1cccnc1)c1cn(C2CCC2)c2ncccc12"
experimental_system = "Pyruvate kinase PKM (Homo sapiens)"
result = "93%"

[[record]]
smiles_data = "O=C(CCSC(=S)NCc1cccnc1)c1c[nH]c2ncc(Cl)cc12"
experimental_system = "Pyruvate kinase PKM (Homo sapiens)"
result = "71%"

[[record]]
smiles_data = "C#Cc1ccnc2[nH]cc(C(=O)CCSC(=S)NCc3cccnc3)c12"
experimental_system = "Pyruvate kinase PKM (Homo sapiens)"
result = "24%"

[[record]]
smiles_data = "O=C(CCSC(=S)NCc1cccnc1)c1c[nH]c2nccc(C3CC3)c12"
experimental_system = "Pyruvate kinase PKM (Homo sapiens)"
result = "inactive"

[[record]]
smiles_data = "O=C(CCSC(=S)NCc1cccnc1)c1cnn2ncccc12"
experimental_system = "Pyruvate kinase PKM (Homo sapiens)"
result = "44%"

[[record]]
smiles_data = "Cn1cc(C(=O)CCSC(=S)NCc2cccnc2)c2cccnc21"
experimental_system = "Pyruvate kinase PKM (Homo sapiens)"
result = "114%"


----------
ASSAY PROTOCOL: Cytotoxicity against human HELF cells assessed as reduction in cell viability at 20 uM incubated for 72 hrs by CellTiter-Glo assay relative to control
Type: cell-based
COND: read-out: INH
QUANTITY KIND: cytotoxicity at 72 h, 20 µM

[[record]]
smiles_data = "O=C(CCSC(=S)NCc1cccnc1)c1cn(CC(F)F)c2ncccc12"
result = "10%"


----------
ASSAY PROTOCOL: Cytotoxicity against human HELF cells assessed as reduction in cell viability incubated for 72 hrs by CellTiter-Glo assay
Type: cell-based
QUANTITY KIND: IC50

[[record]]
smiles_data = "O=C(CCSC(=S)NCc1cccnc1)c1cn(CC(F)F)c2ncccc12"
result = "> 20 µM"


----------
EXPERIMENTAL SYSTEM: Pyruvate kinase PKM (Homo sapiens)
ASSAY PROTOCOL: Activation of human recombinant His-tagged PKM2 expressed in Escherichia coli assessed as maximal activity using PEP as substrate measured at 30 sec between 3 and 6 mins in presence of […] by fluorescent pyruvate kinase-lactate dehydrogenase coupled assay relative to control
Activity calls are given as the source filed them. The calls are words filed in the database; no cut-off is given here.
QUANTITY KIND: %max

[[record]]
smiles_data = "Cc1ccc2c(C(=O)CCSC(=S)NCc3cccnc3)c[nH]c2n1"
result = "inactive"

[[record]]
smiles_data = "O=C(CCSC(=S)NCc1cccnc1)c1cn(-c2ccccc2)c2ncccc12"
result = "77%"

[[record]]
smiles_data = "O=C(CCSC(=S)NCc1cccnc1)c1cnn2ccccc12"
result = "23%"

[[record]]
smiles_data = "O=C(CCSC(=S)NCc1cccnc1)c1cn(CC(F)F)c2ncccc12"
result = "149%"

[[record]]
smiles_data = "O=C(CCSC(=S)NCc1cccnc1)c1c[nH]c2nccc(Br)c12"
result = "83%"

[[record]]
smiles_data = "O=C(CCSC(=S)NCc1cccnc1)c1c[nH]c2nc(Cl)ccc12"
result = "inactive"

[[record]]
smiles_data = "O=C(CCSC(=S)NCc1cccnc1)c1c[nH]c2nccc(-c3ccccc3)c12"
result = "28%"

[[record]]
smiles_data = "O=C(CCSC(=S)NCc1cccnc1)c1c[nH]c2nccc(Cl)c12"
result = "122%"


Measured values drawn from ChEMBL document CHEMBL4346662 for this set.
